The measurements presented in this section are drawn from the RNAGym collection of RNA variant scans (doi:10.1093/nar/gkz1192).

B1: CPEB3 Ribozyme (parent)
chain: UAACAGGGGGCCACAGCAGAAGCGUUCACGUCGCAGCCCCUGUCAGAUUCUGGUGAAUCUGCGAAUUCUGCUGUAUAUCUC

# Variants of: B1
# test: self-cleavage, relative activity (ratio to wild type); higher = more cleavage; in vitro, sequencing
attribute_measured: self-cleavage
Give bare numbers.

Would you mind listing self-cleavage for each of the following variants?
1. U26A A65U
2. U25A C34U
3. C4U U60G
4. C11A C68A

Output:
1: 0.35; 2: 0.56; 3: 0.86; 4: 0.14
